Data credit: patent EP4659811A1

system_name: VP1 capsid protein on BKV pseudovirions of genotype IVc2 (A-66H; AB369093) (BK virus genotype IVc2 (A-66H))
measurement_description: cell-based or functional assay
property_measured: Neutralization PSV IC50

Input: Neutralization PSV IC50 for antibody D3P7 (antibody, V domains shown) VH: QVQLVQSGSELKKPGASVRVSCKASAYTFTNSAINWVRQAPGQGLEWTGWINTNTGNPAYAQGFRGRFVFSLDTSVSEAYLQITNLKAEDTATYYCAVPYNFGGDHNSFHFFGMDVWGQGTTVTVSS VL: QSALTQPASVSGSPGQSITISCTGSSSDVGTYNFVSWYQQQPAKAPKVMIYEGTKRPSGISDRFSGSKSGNTASLTISGLQAEDEADYYCSSYAGGNAFVFGTGTRVSVL ?
Output: > 50 µg/mL

Input: Neutralization PSV IC50 for antibody G11P1 (antibody, V domains shown) VH: EVQLVESGGGLVQPGGSLRLSCAASGFTFRSYSMDWVRQAPGKGLEWVSYISGSSNQKYYTDSVRGRFTISRDNAKNSLFLQMNSLRAEDSAVYYCAREDDILTPLYGMDVWGPGTTVTVSS VL: EIVLTQSPDTLSLSPGARATLSCRASQSVRSNYLAWYQQKPGQAPRLLIYGASSRATAIPDRFSGSGSGTDFTLTITRLEPEDFAVYYCHQYASSPRTFGQGTKVEIK ?
Output: 0.02 µg/mL

Input: Neutralization PSV IC50 for antibody B3P3 (antibody, V domains shown) VH: EVQLVESGGGVVQPGRSLRLSCVTSGFTFESYGIHWVRQAPGKGLEWVAVISNDGSIEDYAGSVKGRFTISGDKAKNTVYLQVNSLRPDDTAVYYCAKDAVGITGGSLYYSYGMDVWGQGTTVTVSS VL: DIQMTQSPSPLSAFIGGRVTITCRASQTIKNYLNWYQQKPGEAPKLLIYTASTLQNGVPSRFSGSRSGTDFTLTITSLQPEDFATYYCQQSYSAPYSFGQGTKLEIK ?
Output: > 50 µg/mL
